Provenance of the data: ChEMBL document CHEMBL3400104

# Assay Comment: Cmax in rat at 10 mg/kg, po
# Format: ADME, organism-based
# Design: dose 10 mg/kg, route oral
# Condition Notes: in vivo
Assay Endpoint: Cmax (ng/mL)

I: O=C(O)CCCn1cc(CC(=O)O)c2c(/C=C/c3ccc(OCCCCOc4ccccc4)cc3)cccc21
II: O=C(O)CCCN1CC(c2nnn[nH]2)Oc2c(CCc3ccc(OCCCCc4ccccc4)cc3)cccc21 (configuration not stated)
Exercise: Just tell me: smaller Cmax value, I or II ? Indicate which entry you chose by stating its label.
Solution: II
(II: 400 ng/mL, I: 33000 ng/mL)
